Target entity: GLUT1 (Homo sapiens)
Sequence (P11166 whole entry, species assumed): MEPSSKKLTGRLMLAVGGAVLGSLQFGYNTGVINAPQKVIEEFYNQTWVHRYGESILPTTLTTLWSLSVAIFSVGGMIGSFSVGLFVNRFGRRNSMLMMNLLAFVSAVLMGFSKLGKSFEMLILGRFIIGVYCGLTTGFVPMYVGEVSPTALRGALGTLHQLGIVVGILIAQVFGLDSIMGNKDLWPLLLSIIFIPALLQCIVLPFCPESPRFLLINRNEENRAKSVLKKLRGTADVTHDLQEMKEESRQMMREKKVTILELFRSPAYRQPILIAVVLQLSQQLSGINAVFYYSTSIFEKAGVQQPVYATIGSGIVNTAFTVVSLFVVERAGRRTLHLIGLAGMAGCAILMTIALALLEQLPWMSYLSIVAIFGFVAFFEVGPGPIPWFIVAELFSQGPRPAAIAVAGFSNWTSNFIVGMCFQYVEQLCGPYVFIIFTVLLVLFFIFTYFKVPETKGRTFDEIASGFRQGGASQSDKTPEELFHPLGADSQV
Assay summary: Indirect measurement of GLUT1 activity by quantification of intracellular ATP levels (glucose induced ATP increase)
Format: cell-based
Parameters: endogenous in cells; host or cells: DLD1 or CHO-K1
Settings: read-out: IC50 regarding glucose induced ATP increase (GLUT1 inhibition)

Compound: Cc1c(NC(=O)c2cc(C(N)=O)nc3ccccc23)c(C(F)(F)F)nn1CCc1ccc(F)cc1 [Example 1371]
IC50: 144 nM
//
Compound: COc1ccccc1Cn1nc(C(F)(F)F)c(NC(=O)c2cc(C(N)=O)nc3cc(F)c(Cl)cc23)c1C [Example 1491]
IC50: 41.5 nM
//
Compound: Cc1c(NC(=O)c2cc(C(N)=O)nc3cc(F)ccc23)c(C(F)(F)F)nn1Cc1ccc(C(=O)NCCN(C)C)cc1 [Example 374]
IC50: 895 nM
//
Compound: Cc1cccc(Cn2nc(C)c(NC(=O)c3cc(C(F)(F)F)nc4ccc(Br)cc34)c2C)c1 [Example 52]
IC50: 52.1 nM
//
Compound: Cc1nn(Cc2ccc(F)cc2)c(C)c1NC(=O)c1cc(C(=O)N(C)C)nc2ccccc12 [Example 209]
IC50: 817 nM
//
Compound: COc1cccc(Cn2nc(C(F)(F)F)c(NC(=O)c3cc(C(N)=O)nc4cc(F)ccc34)c2C)c1 [Example 1447]
IC50: 23.2 nM
//
Compound: Cc1nn(Cc2ccc(C(=O)NCCn3cccn3)cc2)c(C)c1NC(=O)c1cc(C(F)(F)F)nc2ccc(Br)cc12 [Example 1106]
IC50: 49.6 nM
//
Compound: Cc1nn(Cc2ccc(F)cc2F)c(C)c1NC(=O)c1cc(C(N)=O)nc2cc(F)ccc12 [Example 1487]
IC50: 1.2 nM
//
Compound: Cc1nn(Cc2ccc(CN(C)C)cc2)c(C)c1NC(=O)c1cc(C(N)=O)nc2cc(F)ccc12 [Example 388]
IC50: 108 nM
//
Compound: Cc1nn(CCN2CCOCC2)c(C)c1NC(=O)c1cc(C(F)(F)F)nc2ccc(Br)cc12 [Example 1218]
IC50: 694 nM
//
Compound: Cc1ccc2nc(C)cc(C(=O)Nc3c(C)nn(Cc4ccc(OC(F)(F)F)cc4)c3C)c2c1 [Example 58]
IC50: 77.1 nM
//
Compound: Cc1cc(C(=O)Nc2c(C)nn(Cc3ccc(F)cc3)c2C)c2ccccc2n1 [Example 105]
IC50: 528 nM
//
Compound: Cc1ccc2nc(C)cc(C(=O)Nc3c(C)nn(CC4CCCCC4)c3C)c2c1 [Example 206]
IC50: 667 nM
//
Compound: CC(C)c1c(NC(=O)c2cc(C(N)=O)nc3ccccc23)c(C(F)(F)F)nn1Cc1ccc(C#N)cc1 [Example 317]
IC50: 1050 nM
//
Compound: Cc1c(NC(=O)c2cc(C(N)=O)nc3cc(F)ccc23)c(C(F)(F)F)nn1Cc1c(F)cc(C#N)cc1F [Example 395]
IC50: 5.3 nM

----------
Target entity: GLUT1 (Homo sapiens)
Assay summary: Indirect measurement of GLUT1 activity by quantification of intracellular ATP levels (glucose induced ATP increase)
Type: cell-based
Parameters: endogenous in cells; host or cells: DLD1 or CHO-K1
Settings: read-out: IC50 regarding glucose induced ATP increase (GLUT1 inhibition)
Rule for this label: yes means IC50 is less than 0.03 µM; no means IC50 is at least 0.03 µM.

Compound: Cc1nn(Cc2ccc(C(=O)NCC3(CO)COC3)cn2)c(C)c1NC(=O)c1cc(C(F)(F)F)nc2ccc(Br)cc12
Qualitative label: no
//
Compound: Cc1nn(Cc2ccc(F)cc2)c(C(N)=O)c1NC(=O)c1cc(C(F)(F)F)nc2ccc(Br)cc12
Qualitative label: no
//
Compound: Cc1c(NC(=O)c2cc(C(N)=O)nc3ccccc23)c(C(C)C)nn1Cc1ccc(C#N)cc1
Qualitative label: yes
//
Compound: Cc1ccccc1Cn1nc(C(F)(F)F)c(NC(=O)c2cc(C(N)=O)nc3cc(F)c(Cl)cc23)c1C
Qualitative label: yes
//
Compound: Cc1nn(Cc2ccc(F)cc2F)c(C)c1NC(=O)c1cc(C(N)=O)nc2cccc(F)c12
Qualitative label: yes
//
Compound: Cc1c(NC(=O)c2cc(C(F)(F)F)nc3ccc(Br)cc23)c(C(F)(F)F)nn1Cc1ccc(C#N)cc1
Qualitative label: yes
//
Compound: Cc1nn(CC2CCNCC2)c(C)c1NC(=O)c1cc(C(N)=O)nc2ccccc12 [Example 406]
Qualitative label: no
//
Compound: Cc1nn(Cc2cccc(C#N)n2)c(C)c1NC(=O)c1cc(C(N)=O)nc2cccc(F)c12
Qualitative label: yes
//
Compound: COc1ccccc1Cn1nc(C(F)(F)F)c(NC(=O)c2cc(C(N)=O)nc3ccccc23)c1C
Qualitative label: no
//
Compound: Cc1c(NC(=O)c2cc(C(N)=O)nc3cc(F)c(Cl)cc23)c(C(F)(F)F)nn1Cc1cc(CN2CCOCC2)on1
Qualitative label: no
//
Compound: COc1cc(C(=O)Nc2c(C)nn(Cc3cccc(C)c3)c2C)c2ccccc2n1
Qualitative label: no
//
Compound: Cc1nn(Cc2ccc(C(=O)N3CC4(CCS4(=O)=O)C3)cc2)c(C)c1NC(=O)c1cc(C(F)(F)F)nc2ccc(Br)cc12
Qualitative label: no
//
Compound: Cc1ccccc1Cn1nc(C)c(NC(=O)c2cc(C(F)(F)F)nc3ccc(Br)cc23)c1C
Qualitative label: yes
//
Compound: Cc1c(NC(=O)c2cc(C(N)=O)nc3ccccc23)c(C(F)(F)F)nn1Cc1cc(CN2CCOCC2)on1
Qualitative label: no
//
Compound: Cc1c(NC(=O)c2cc(C(N)=O)nc3cc(F)ccc23)c(C(F)(F)F)nn1Cc1ccc(F)cc1F
Qualitative label: yes
//
Compound: Cc1c(NC(=O)c2cc(C(N)=O)nc3ccccc23)c(C(F)(F)F)nn1Cc1ccncc1
Qualitative label: no
//
Compound: CNC(=O)c1ccc(Cn2nc(C(F)(F)F)c(NC(=O)c3cc(C(F)(F)F)nc4ccc(Br)cc34)c2C)nc1
Qualitative label: yes
//
Compound: Cc1c(NC(=O)c2cc(C(N)=O)nc3ccccc23)c(C(F)(F)F)nn1Cc1ccc(C#N)nc1
Qualitative label: yes
//
Compound: Cc1nn(Cc2ccc(C(=O)NCC3CCO3)cn2)c(C)c1NC(=O)c1cc(C(F)(F)F)nc2ccc(Br)cc12 (racemic)
Qualitative label: no
//
Compound: Cc1c(NC(=O)c2cc(C(N)=O)nc3cc(F)c(Cl)cc23)c(C(F)(F)F)nn1Cc1ccc(S(C)(=O)=O)cc1
Qualitative label: yes
//
Compound: Cc1c(NC(=O)c2cc(C(N)=O)nc3cc(F)c(Cl)cc23)c(C(F)(F)F)nn1Cc1cc(C2CC2)on1
Qualitative label: yes
//
Compound: Cc1ccc2nc(C)cc(C(=O)Nc3c(C)nn(C/C=C/c4ccccc4)c3C)c2c1
Qualitative label: no
//
Compound: Cc1c(NC(=O)c2cc(C(N)=O)nc3cc(F)c(Br)cc23)c(C(F)(F)F)nn1Cc1ccc(C#N)cc1
Qualitative label: yes
//
Compound: COc1cc(C#N)ccc1Cn1nc(C)c(NC(=O)c2cc(C(N)=O)nc3cc(F)c(Cl)cc23)c1C
Qualitative label: yes
//
Compound: Cc1nn(Cc2cccc(C#N)c2)c(C)c1NC(=O)c1cc(C(N)=O)nc2ccccc12
Qualitative label: yes
//
Compound: COCCN(C(=O)c1cc(C(F)(F)F)nc2ccc(Br)cc12)c1c(C)nn(Cc2ccc(F)cc2)c1C
Qualitative label: no
//
Compound: CC(=O)c1cccc(Cn2nc(C(F)(F)F)c(NC(=O)c3cc(C(N)=O)nc4ccccc34)c2C)c1
Qualitative label: no

----------
Target entity: GLUT1 (Homo sapiens)
Assay summary: Indirect measurement of GLUT1 activity by quantification of intracellular ATP levels (glucose induced ATP increase)
Type: cell-based
Design: endogenous in cells; host or cells: DLD1 or CHO-K1
Settings: read-out: IC50 regarding glucose induced ATP increase (GLUT1 inhibition)
Parameter: IC50 (nM)

Molecule: Cc1nn(Cc2ccc(C(=O)N3CCOCC3)cc2)c(C)c1NC(=O)c1cc(C(F)(F)F)nc2ccc(Br)cc12 [Example 141]
Parameter: IC50
Observed measurement: 69.4

Molecule: Cc1nn(Cc2ccc(F)cc2)c(C)c1NC(=O)c1cc(C(F)(F)F)nc2cc(F)ccc12 [Example 29]
Parameter: IC50
Observed measurement: 19

Molecule: COc1cc(C(=O)Nc2c(C)nn(Cc3ccncc3C#N)c2C)c2ccccc2n1 [Example 1189]
Parameter: IC50
Observed measurement: 310

Molecule: CNC(=O)c1ccc(Cn2nc(C)c(NC(=O)c3cc(C(F)(F)F)nc4ccc(Br)cc34)c2C)cc1 [Example 135]
Parameter: IC50
Observed measurement: 8.1
